Biological target: NK3 receptors (Homo sapiens, UniProt P29371)
Construct: expressed in transfected cells
Sequence (P29371 whole entry): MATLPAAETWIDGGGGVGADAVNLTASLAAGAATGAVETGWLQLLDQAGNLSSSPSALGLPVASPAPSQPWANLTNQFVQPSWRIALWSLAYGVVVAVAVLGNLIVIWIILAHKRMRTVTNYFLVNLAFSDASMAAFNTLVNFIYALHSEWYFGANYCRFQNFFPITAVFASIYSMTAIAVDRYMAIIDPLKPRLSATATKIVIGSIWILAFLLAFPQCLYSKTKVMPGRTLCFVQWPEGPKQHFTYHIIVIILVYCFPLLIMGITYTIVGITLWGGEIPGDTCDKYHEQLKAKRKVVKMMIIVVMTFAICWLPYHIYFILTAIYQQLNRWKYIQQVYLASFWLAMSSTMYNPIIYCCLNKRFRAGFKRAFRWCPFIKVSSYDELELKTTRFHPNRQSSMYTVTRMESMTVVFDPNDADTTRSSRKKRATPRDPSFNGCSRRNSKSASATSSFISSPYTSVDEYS
Assay: Calcium ion fluidity (FLIPR) in cells with stable expression of NK3 receptors
Format: cell-based
Settings: calcium signal, antagonist mode, read-out: NK3R IC50 (nM) FLIPR
Please respond with reported IC50 for every item in the list.
Answers are plain numbers, in nM.

Some compounds with known IC50 results, for comparison:
# compound, reading
measured = [
    ("[2H]c1cc(C(=O)N2CCn3c(-c4nc5ccc(F)cc5s4)nnc3[C@H]2C)ccc1F [Example 61]", 78.9),
    ("C[C@@H]1c2nnc(-c3nc4cc(F)ccc4s3)n2CCN1C(=O)c1ccc(Cl)cc1 [Example 10]", 51.4),
    ("C[C@@H]1c2nnc(-c3nc4ccc(Cl)nc4s3)n2CCN1C(=O)c1ccc(F)cc1 [Example 38]", 247),
    ("C[C@@H]1c2nnc(-c3nc4cc(F)c(F)cc4s3)n2CCN1C(=O)c1ccc(F)cc1 [Example 17]", 6.81),
    ("Cc1ccc2nc(-c3nnc4n3CCN(C(=O)c3ccc(Cl)c(Cl)c3)[C@@H]4C)sc2c1 [Example 26]", 96.7),
]

Look up IC50 for the entries below, preserving their order.
1. C[C@@H]1c2nnc(-c3nc4ccc(Cl)cc4s3)n2CCN1C(=O)c1ccc(F)cc1 [Example 19]
2. [2H]C([2H])([2H])N(c1nsc(-c2nnc3n2CCN(C(=O)c2ccc(Cl)cc2)[C@@H]3C)n1)C([2H])([2H])[2H] [Example 107]
3. [2H]c1cc(C(=O)N2CCn3c(-c4nc5ccc(F)cc5s4)nnc3[C@H]2C)ccc1Cl [Example 101]

Marked response:
1: 10.9; 2: 184; 3: 86.7
